Entry source: ChEMBL document CHEMBL1124731

# experimental-target: Protein kinase C (PKC) (Homo sapiens) (UniProt O94806+P41743+P17252+P05129+Q05655+P05771+Q05513+Q02156+P24723+Q15139+Q04759)
# assay-details: Retained protein kinase C activity in the presence of 1.25 uM compound
# Assay type: functional
observed-property: Activity (%)
Enter your answer as a number in %; do not include the unit.

Query: Form field: reported Activity of CCCCCCCCCCCCCCCCC[C@@H]1OC[C@@H](C[N+](C)(C)CCCO)O1
Reply: 94

Query: Entry under review: CCCCCCCCCCCCCCCCSCC(C[N+](C)(C)C)OC (stereo not drawn) . Reported Activity?
Reply: 112

Query: So what does the record say about Activity for CCCCCCCCCCCCCCCCSCC(C[N+](C)(C)CCO)OC (stereo not drawn) ?
Reply: 97

Query: Fill in the blank: the reported Activity of CCCCCCCCCCCCCCCCSCC(C[N+](C)(C)CCCO)OCC (stereo not drawn) is ____.
Reply: 78

Query: Sample CCCCCCCCCCCCCCCCOCC(COCC[N+](C)(C)C)OC (stereo not drawn) — what was its Activity?
Reply: 92

Query: I would be grateful if you could share the reported Activity for CCCCCCCCCCCCCCCCSCC(C[N+](C)(C)CCO)OCC (stereo not drawn) .
Reply: 92

Query: I have this compound here, CC1(C)OC[C@@H](C[N+](C)(C)CCO)O1 , and I need its recorded Activity.
Reply: 88

Query: # query: Activity of entry CCCCCCCCCCCCCCCCCCOCC(COP(=O)([O-])OCC[N+](C)(C)C)OC (stereo not drawn)
Reply: 99

Query: Report Activity for CCCCCCCCCCCCCCCCCC1OCC(C[N+](C)(C)CCCO)O1 (stereo not drawn) please.
Reply: 99

Query: Look up Activity for this compound: CCCCCCCCCCCCCCCCCCSCC(C[N+](C)(C)CCCO)OC (stereo not drawn)
Reply: 75

Query: // query Activity value for entry COC(COc1cccc2ccccc12)C[N+](C)(C)CCO (stereo not drawn)
Reply: 99

Query: What measured Activity goes with CCCCCCCCCCCCCCCCOCC(COCCO)OC (stereo not drawn) ?
Reply: 98

Query: // Activity lookup, key: CCCCCCCCCCCCCCCCOCC(C[N+](C)(C)CCO)OC (stereo not drawn)
Reply: 107
